// provenance: patent US20210253718A1

Please provide measured median fluorescence for the entries that follow.
# system_tested: T1, FZD9 cysteine-rich domain (CRD), MYC-tagged and GPI-anchored on CHO cells (human, UniProt O00144 35-161, GPI anchor)
# T1 construct: also called FZD9 CRD; CHO-myc-FZDGPI; not shown: MYC tag and GPI anchor signal
# T1 sequence: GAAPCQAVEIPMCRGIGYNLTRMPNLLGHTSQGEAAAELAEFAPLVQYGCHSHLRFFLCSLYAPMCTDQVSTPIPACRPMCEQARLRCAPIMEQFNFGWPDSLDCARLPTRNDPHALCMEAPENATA
# protocol_description: flow cytometry, CHO-CRD cells;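 further: flow cytometry of Fab binding to CHO cells overexpressing a Frizzled CRD, with binding defined as median fluorescence over twice that of CHO cells lacking any Frizzled CRD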
Answers are plain numbers.

Fab-2899 (Fab, V domains shown, Fab; also called Fv-2899) VH: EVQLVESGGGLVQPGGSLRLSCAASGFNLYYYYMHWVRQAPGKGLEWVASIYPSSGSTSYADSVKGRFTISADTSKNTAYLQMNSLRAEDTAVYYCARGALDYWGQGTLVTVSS VL: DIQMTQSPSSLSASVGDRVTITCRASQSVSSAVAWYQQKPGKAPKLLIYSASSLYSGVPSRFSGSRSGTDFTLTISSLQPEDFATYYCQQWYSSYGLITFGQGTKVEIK ... 4.7

Now for another entry.
Challenge: So what does the record say about median fluorescence for Fab-2936 (Fab, V domains shown, Fab; also called Fv-2936) VH: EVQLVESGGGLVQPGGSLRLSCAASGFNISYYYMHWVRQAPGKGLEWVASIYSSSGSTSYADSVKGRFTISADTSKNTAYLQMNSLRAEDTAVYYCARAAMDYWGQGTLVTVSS VL: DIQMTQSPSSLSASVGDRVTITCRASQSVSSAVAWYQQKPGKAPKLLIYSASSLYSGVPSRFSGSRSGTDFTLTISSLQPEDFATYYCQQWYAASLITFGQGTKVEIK ?
Response given: 2.74
